Answer each item with its documented viability, T/C.
tested on: PANC-1 complex spheroid growth, percent test/control; test: Anticancer human tumor PANC-1 cell line growth inhibition [Asc]; conditions: second compound 3.16 µM; first compound 0.0316 µM; stronger effect = lower value;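 further: spheroids exposed to agents for 7 days; percent viability relative to DMSO vehicle wells taken as 100%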

Provide measured viability, T/C value, entry: O=C(c1ccc(F)c(F)c1Nc1ccc(I)cc1F)N1CC(O)([C@@H]2CCCCN2)C1 + Cc1c(S(C)(=O)=O)c(-c2cc(F)cc(N3CCN(c4ccc(NS(=O)(=O)c5ccc(NC(CCN6CCC(C(=O)OCCCP(=O)(O)O)CC6)CSc6ccccc6)c(S(=O)(=O)C(F)(F)F)c5)cc4)CC3)c2)c(-c2ccc(Cl)cc2)n1C(C)C 89.3%

Provide measured viability, T/C value, entry: COc1c(OCCCN2CCOCC2)ccc2c3n(c(=NC(=O)c4cnc(N)nc4)nc12)CCN3 + Cc1c(S(C)(=O)=O)c(-c2cc(F)cc(N3CCN(c4ccc(NS(=O)(=O)c5ccc(NC(CCN6CCC(C(=O)OCCCP(=O)(O)O)CC6)CSc6ccccc6)c(S(=O)(=O)C(F)(F)F)c5)cc4)CC3)c2)c(-c2ccc(Cl)cc2)n1C(C)C 86.8%

Provide measured viability, T/C value, entry: CCN1CCN(Cc2ccc(Nc3ncc(F)c(-c4cc(F)c5nc(C)n(C(C)C)c5c4)n3)nc2)CC1 + Cc1c(S(C)(=O)=O)c(-c2cc(F)cc(N3CCN(c4ccc(NS(=O)(=O)c5ccc(NC(CCN6CCC(C(=O)OCCCP(=O)(O)O)CC6)CSc6ccccc6)c(S(=O)(=O)C(F)(F)F)c5)cc4)CC3)c2)c(-c2ccc(Cl)cc2)n1C(C)C 102%
